Where do the numbers come from? From the Immune Epitope Database (IEDB).

Reported pKd by item:
# measurement.target: HLA-A*68:02
# experiment.description: IEDB peptide-MHC binding, purified MHC/competitive/radioactivity; filed as Kd, often an IC50 or EC50 that approximates it; bounds were set here for any values at or beyond the usual limits of such assays
# stated.conditions: source organism: Toxoplasma gondii
API: returns pKd as number; meaning -log10 of concentration in mol/L.

Use these answered entries as a reference point.
entry.sequence | pKd
FLTDYIPGA | 5.68
FMIVSISLV | 7.32
FVIFACNFV | 8.92

Problem: Give the reported pKd for this sequence. FLSLSLLVI
Solution: 5.01

Problem: Answer with reported pKd of FMIAFISCFA
Solution: 6.40

Problem: Quick one: give measured pKd for GLAAAVVAV
Solution: 6.58

Problem: For the sequence ITMGSLFFV , report pKd.
Solution: 8.96

Problem: Quick one: give measured pKd for FLLGLLVHV
Solution: 6.76
